tested on: HCT-116 colon; test: NCI tumour cell line growth inhibition, 48 h
*1 amine or outer side, *2 acyl side, *3 side chain or, on linkers, in order; H or OH if unused. Where a SMILES comes first, the peptide text is derived from it. Bridges are numbered along the chain shown (N, C = ends). Roman numbers before positions name the chains, in order. [ ]: non-standard residue; d: D form. Actinocin(9to1) = Cc1c2oc3c(C)ccc(C(=O)[*:1])c3nc-2c(C(=O)[*:2])c(N)c1=O; NMeV = CN[CH](C(=O)O)C(C)C; Sar = CNCC(=O)O
# maps each entry to its TGI

[
  {
    "compound": "Cc1cc(C)nc(NS(=O)(=O)c2ccc(Nc3c4ccccc4nc4c(C(=O)Nc5ccc(S(=O)(=O)Nc6cc(C)on6)cc5)ccc(Cl)c34)cc2)n1",
    "target-of-assay": "HCT-116 colon",
    "rel": "=",
    "TGI, µM": 40.5
  },
  {
    "compound": "CCOC(=O)CCC(NC(=O)c1ccc(Nc2nc3cc(C(F)(F)F)ccc3nc2C(=O)OCC)cc1)C(=O)OCC (configuration not stated)",
    "target-of-assay": "HCT-116 colon",
    "rel": "=",
    "TGI, µM": 19.9
  },
  {
    "compound": "Oc1cc(Cl)cc2cc(Cl)cnc12",
    "target-of-assay": "HCT-116 colon",
    "rel": ">",
    "TGI, µM": 100
  },
  {
    "compound": "COc1cccc2c1C(=O)c1c(O)c3c(c(O)c1C2=O)C[C@@](O)(C(=O)CN1CCOCC1)C[C@@H]3OC1CC(N)C(O)C(C)O1 (some centres not stated)",
    "target-of-assay": "HCT-116 colon",
    "rel": ">",
    "TGI, µM": 100
  },
  {
    "compound": "COC(NC(N)=O)C(=O)O (configuration not stated)",
    "target-of-assay": "HCT-116 colon",
    "rel": ">",
    "TGI, µM": 100
  },
  {
    "compound": "Cc1c2oc3c(C)ccc(C(=O)OC(C)C4NC(=O)C(C(C)C)N(C)C(=O)CN(C)C(=O)C5CCCN5C(=O)C(C(C)C)NC4=O)c3nc-2c(C(=O)OC(C)C2NC(=O)C(C(C)C)N(C)C(=O)CN(C)C(=O)C3CCCN3C(=O)C(C(C)C)NC2=O)c(N)c1=O (configuration not stated) (I: cyclo([Sar][NMeV]TVP) / II: cyclo([Sar][NMeV]TVP); linker I:3-II:3 via Actinocin(9to1); configuration not given here)",
    "target-of-assay": "HCT-116 colon",
    "rel": ">",
    "TGI, µM": 100
  },
  {
    "compound": "Cc1cn(CCC(N)C(=O)O)c(=O)[nH]c1=O (configuration not stated)",
    "target-of-assay": "HCT-116 colon",
    "rel": ">",
    "TGI, µM": 100
  },
  {
    "compound": "Nc1ccc2nc(Nc3ccc(Cl)c(Cl)c3)cnc2c1",
    "target-of-assay": "HCT-116 colon",
    "rel": "=",
    "TGI, µM": 33.4
  },
  {
    "compound": "Cc1ccc(NC(=O)C(=O)C(C(=O)c2ccc3ccccc3c2)C2OC(=O)c3ccccc32)c(C)c1 (configuration not stated)",
    "target-of-assay": "HCT-116 colon",
    "rel": "=",
    "TGI, µM": 20.1
  },
  {
    "compound": "O=C1C(C(c2ccc([N+](=O)[O-])cc2)N2CCOCC2)=C(O)C(c2ccccc2)N1c1ccccc1 (configuration not stated)",
    "target-of-assay": "HCT-116 colon",
    "rel": ">",
    "TGI, µM": 10
  },
  {
    "compound": "COC(=O)[C@@H]1[C@H](O)CCC2=C(CC(=O)c3ccoc3)[C@H](C)CC[C@]21C",
    "target-of-assay": "HCT-116 colon",
    "rel": ">",
    "TGI, µM": 50
  },
  {
    "compound": "COc1ccc(C(=O)c2c(-c3ccccc3NC(=O)C(F)(F)F)[nH]c3ccccc23)cc1",
    "target-of-assay": "HCT-116 colon",
    "rel": "=",
    "TGI, µM": 25.5
  },
  {
    "compound": "COc1cc2c3c(n(CCCCNC(=O)OC(C)(C)C)c(=O)c2cc1OC)-c1cc2c(cc1C3=O)OCO2",
    "target-of-assay": "HCT-116 colon",
    "rel": ">",
    "TGI, µM": 100
  },
  {
    "compound": "COc1cccc(Sc2ccc([N+](=O)[O-])c3no[n+]([O-])c23)c1",
    "target-of-assay": "HCT-116 colon",
    "rel": "=",
    "TGI, µM": 14.4
  },
  {
    "compound": "CCCc1n[nH]c(=O)n1N1C(=O)C=CC1=O",
    "target-of-assay": "HCT-116 colon",
    "rel": ">",
    "TGI, µM": 100
  },
  {
    "compound": "CC(=Nc1ccccc1)C1=C(O)C(Cc2cccc(F)c2)NC1=O (configuration not stated)",
    "target-of-assay": "HCT-116 colon",
    "rel": ">",
    "TGI, µM": 39.4
  },
  {
    "compound": "Cn1cnc([N+](=O)[O-])c1Sc1nnnn1C",
    "target-of-assay": "HCT-116 colon",
    "rel": "=",
    "TGI, µM": 28
  }
]
